Tested on: MIWI (PIWIL1) piRISC loaded with L1MC piRNA (30 nt);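 further: 1 nM active piRISC with 0.1 nM target library at 33 °C single turnover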
METHOD_DESCRIPTION: pre-steady-state target cleavage rate (min^-1); MIWI and MILI are mouse PIWI proteins and EfPiwi is from a freshwater sponge; tags in brackets are library labels; higher = faster piRNA-guided slicing of the target;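 further: 1 nM active piRISC with 0.1 nM target library at 33 °C single turnover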
EXPERIMENTAL_CONTEXT: guide: L1MC piRNA 5'p-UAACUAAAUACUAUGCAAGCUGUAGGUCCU; auxiliary factor: 500 nM mouse GTSF1
In all, about 8,200 sequences were measured (“pre-steady-state target cleavage rate”: median about 0.024, highest 2% from about 1.3 on). This is one part of a sample in which the highest values are shown more often than they occur.
Outcome: yes for pre-steady-state target cleavage rate of at least 1; no for anything lower.

Entry UGGACCUUCUGCUUGCAUAGUAUUUAGUUA : is its pre-steady-state target cleavage rate no less than 1? yes

Entry UCCACCUGCAGCUUGCAUAGUAUUUAGUUA : is its pre-steady-state target cleavage rate no less than 1? yes

Entry AGGACCUUCUGCUUGCAUAGUAUUUAGUUA : is its pre-steady-state target cleavage rate no less than 1? yes

Entry UCGACCUUGUGCUUGCAUAGUAUUUAGUUA : is its pre-steady-state target cleavage rate no less than 1? no

Entry UCGACCUUCUGCUUGCAUAGUAUUUAGUUA : is its pre-steady-state target cleavage rate no less than 1? yes

Provenance of the data: the supplement of paper PMC10338343
